Molecular target: Tyrosine-protein kinase JAK3 (Homo sapiens) (UniProt P52333);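 note: values reported are mean percent inhibition of JAK3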
Sequence (P52333 whole entry): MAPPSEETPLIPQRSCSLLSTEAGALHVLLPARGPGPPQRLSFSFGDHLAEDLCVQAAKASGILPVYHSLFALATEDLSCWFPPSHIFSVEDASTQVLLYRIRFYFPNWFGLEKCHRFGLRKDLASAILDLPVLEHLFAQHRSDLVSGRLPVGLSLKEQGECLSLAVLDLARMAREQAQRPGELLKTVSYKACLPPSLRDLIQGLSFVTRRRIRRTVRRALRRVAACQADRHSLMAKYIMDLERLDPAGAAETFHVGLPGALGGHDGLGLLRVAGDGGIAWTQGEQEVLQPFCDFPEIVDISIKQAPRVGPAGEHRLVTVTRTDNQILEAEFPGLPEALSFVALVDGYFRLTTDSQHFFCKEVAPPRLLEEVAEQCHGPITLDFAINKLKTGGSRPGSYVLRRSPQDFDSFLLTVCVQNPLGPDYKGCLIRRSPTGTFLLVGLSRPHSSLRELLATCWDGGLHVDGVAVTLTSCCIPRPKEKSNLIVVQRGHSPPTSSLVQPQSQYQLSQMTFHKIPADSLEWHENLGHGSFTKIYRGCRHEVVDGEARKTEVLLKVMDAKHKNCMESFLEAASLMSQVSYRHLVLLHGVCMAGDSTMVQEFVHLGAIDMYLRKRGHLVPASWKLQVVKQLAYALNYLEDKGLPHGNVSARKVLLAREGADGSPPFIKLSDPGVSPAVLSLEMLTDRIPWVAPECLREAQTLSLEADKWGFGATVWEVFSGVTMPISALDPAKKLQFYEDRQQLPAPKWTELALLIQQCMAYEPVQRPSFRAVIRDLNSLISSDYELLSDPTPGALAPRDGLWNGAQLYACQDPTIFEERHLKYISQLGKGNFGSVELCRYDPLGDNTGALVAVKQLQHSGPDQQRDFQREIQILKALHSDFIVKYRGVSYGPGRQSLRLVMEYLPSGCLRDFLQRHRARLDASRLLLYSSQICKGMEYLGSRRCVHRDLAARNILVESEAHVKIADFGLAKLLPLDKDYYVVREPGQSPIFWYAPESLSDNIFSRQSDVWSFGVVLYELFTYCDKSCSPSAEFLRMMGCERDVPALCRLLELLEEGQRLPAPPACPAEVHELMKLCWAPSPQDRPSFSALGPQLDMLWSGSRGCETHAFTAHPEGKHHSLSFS
Details: at 0.1 µM
inhibition values, listed per item
The answer is to be given in %; state only the numeric part.

Exercise: For Tyrosine-protein kinase JAK3 (Homo sapiens) (UniProt P52333), provide inhibition of FC(F)(F)c1cccc(Nc2nccc(-c3cnn4nc(-c5ccccc5)ccc34)n2)c1 please.
Key: -1.84

Exercise: For Tyrosine-protein kinase JAK3 (Homo sapiens) (UniProt P52333), provide inhibition of NC(=O)c1cc(-c2ccncc2)cc(-c2ccccc2)c1N please.
Key: -1.25

----------
Molecular target: Proto-oncogene tyrosine-protein kinase receptor Ret (Homo sapiens) (UniProt P07949);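 note: reported figure is the mean of RET inhibition measurements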
Sequence (P07949 whole entry): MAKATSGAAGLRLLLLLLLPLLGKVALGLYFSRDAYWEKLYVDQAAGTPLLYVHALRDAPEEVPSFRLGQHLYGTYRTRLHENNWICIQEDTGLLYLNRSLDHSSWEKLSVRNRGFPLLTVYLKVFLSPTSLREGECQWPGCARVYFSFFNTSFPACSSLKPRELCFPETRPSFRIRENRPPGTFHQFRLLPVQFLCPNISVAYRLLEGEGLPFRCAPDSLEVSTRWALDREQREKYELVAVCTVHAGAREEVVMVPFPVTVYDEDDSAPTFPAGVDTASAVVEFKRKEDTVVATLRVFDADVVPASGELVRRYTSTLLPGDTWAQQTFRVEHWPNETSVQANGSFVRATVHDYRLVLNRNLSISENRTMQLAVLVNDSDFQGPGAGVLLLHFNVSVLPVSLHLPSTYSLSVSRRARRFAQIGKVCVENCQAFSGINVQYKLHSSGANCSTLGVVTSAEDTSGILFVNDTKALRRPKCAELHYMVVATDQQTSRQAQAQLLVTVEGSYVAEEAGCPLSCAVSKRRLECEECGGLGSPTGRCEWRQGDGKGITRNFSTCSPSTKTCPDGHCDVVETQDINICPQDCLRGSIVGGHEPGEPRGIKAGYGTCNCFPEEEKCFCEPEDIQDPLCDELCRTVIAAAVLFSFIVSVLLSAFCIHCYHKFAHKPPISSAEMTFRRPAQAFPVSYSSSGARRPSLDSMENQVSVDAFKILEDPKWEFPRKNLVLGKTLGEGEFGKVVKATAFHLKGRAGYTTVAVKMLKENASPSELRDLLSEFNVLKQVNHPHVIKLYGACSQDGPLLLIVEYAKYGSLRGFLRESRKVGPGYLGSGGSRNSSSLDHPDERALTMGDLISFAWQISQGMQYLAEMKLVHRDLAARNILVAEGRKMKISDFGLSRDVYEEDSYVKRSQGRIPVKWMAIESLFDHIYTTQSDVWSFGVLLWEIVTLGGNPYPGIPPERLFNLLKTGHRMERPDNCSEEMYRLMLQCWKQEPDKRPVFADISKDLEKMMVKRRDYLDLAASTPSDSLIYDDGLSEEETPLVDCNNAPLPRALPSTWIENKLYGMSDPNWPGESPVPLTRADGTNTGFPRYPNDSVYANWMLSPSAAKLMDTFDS
Settings: at 0.1 µM
inhibition values, listed per item

Below, each entry is followed by its recorded inhibition result.
recordSmiles: COC(=O)Nc1nc2ccc(Sc3ccc(NC(=O)Nc4cc(C(F)(F)F)ccc4F)cc3)cc2[nH]1
inhibition: 24.7%

recordSmiles: CCc1nccc2c1nc(-c1nonc1N)n2CC
inhibition: 0.76%

recordSmiles: Cc1ccc(NC(=O)c2ccoc2)cc1-c1ccc(C(=O)NCC2CC2)cc1
inhibition: 5.24%

recordSmiles: C#Cc1cccc(Nc2ncnc3ccc(OCCCCNCCS(C)(=O)=O)cc23)c1
inhibition: 14.3%

Next compound, inhibition to be filled in.
Exercise: Requested read-out: inhibition. Entry: COc1cc2ncn(-c3cc(OCc4cccs4)c(C(N)=O)s3)c2cc1OC
Key: 11.9%
